Target: T1, human LILRB1 recombinant protein (human, UniProt Q8NHL6 24-461)
T1 construct: The ELISA method says only 'LILRB1 recombinant proteins' coated on plates; also called leukocyte immunoglobulin-like receptor subfamily B member 1
T1 sequence (Q8NHL6 24-461 limits assumed): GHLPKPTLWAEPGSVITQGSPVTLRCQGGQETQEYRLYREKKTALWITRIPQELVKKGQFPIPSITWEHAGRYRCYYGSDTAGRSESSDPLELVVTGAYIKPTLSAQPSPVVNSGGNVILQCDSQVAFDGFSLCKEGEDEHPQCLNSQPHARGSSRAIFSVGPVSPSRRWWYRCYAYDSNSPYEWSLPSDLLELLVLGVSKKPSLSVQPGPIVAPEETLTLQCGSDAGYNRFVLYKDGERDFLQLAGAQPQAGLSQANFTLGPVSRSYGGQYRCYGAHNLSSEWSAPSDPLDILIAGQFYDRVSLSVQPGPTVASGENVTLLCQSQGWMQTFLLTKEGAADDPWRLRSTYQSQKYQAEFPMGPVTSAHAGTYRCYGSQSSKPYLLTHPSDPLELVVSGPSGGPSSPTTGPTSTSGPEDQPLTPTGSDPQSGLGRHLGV
Test: ELISA, B cell supernatant
propertyMeasured: OD450
In your response, the unit should come after the numeric value.

mAb of B cell clone 175 (supernatant) (antibody, V domains shown, rabbit) VH: ESEGGLVKPGGTLTLTCKVSGIDFNSYKYYYMCWVRQAPGKGLEWIGCMSTASRNIYYASWAKGRFTISETSSTSVTLQMTTLTAADTATYFCAKSHGGDGGYGVVLWGPGTLVTISS VL: ELVMTQTPSSVSAAVGDTLTINCQASETISNRLAWYQQKPGQPPKLLIYSASTLESGVPSRFRGSGSGTQFTLTISDLECADAATYYCQSIRSSSGVVHPNTFGGGTEVEIK : 2.02 OD450

Query binder follows.
Req: Identify measured OD450 corresponding to mAb of B cell clone 162 (supernatant) (antibody, V domains shown, rabbit; also called B1-#162) VH: QSVKESEGGLVQPGGSLTLSCKASGIDFSSAYMSWVRQAPGKGLEWIGKMRINDRSHYANWVNGRFTISNHNDQNTVELQLNSLTAADTATYFCARIATGTNVDDFWGPGTLVTISS VL: ELVMTQTASPVSAAVGGTVTISCQSSQSVYSNNWLSWYQQKPGQPPKRLIYKASTLETGVPSRFKGSGSGKQFTLTISDLECDDAATYYCAGGYSGDLYAFGGGTEVVVK
Resp: 2.02 OD450

Cited source for all entries: patent US12723078
